Biological target: 5-HT2A receptors (UniProt P14842)
Cut-off 40 nM on IC50: below means 1 (yes), at or above means 0 (no).

compound | label
c1coc(-c2c(CN3CCNCC3)cnn2-c2ccc(-c3ccc4c(c3)OCO4)cc2)c1 | 1 (yes)
CN1CCN(Cc2cnn(-c3ccc(-c4ccc(Cl)s4)cc3)c2-c2ccccc2F)CC1 | 1 (yes)
Cc1ccc(-c2ccc(-n3ncc(CN4CCN(C)CC4)c3-c3ccccc3F)cc2)cc1F | 1 (yes)
NC1CCN(Cc2cnn(-c3ccc(-c4ccc5c(c4)OCCO5)cc3)c2-c2ccco2)CC1 | 0 (no)
OC1CCN(Cc2cnn(-c3ccc(-c4ccc(F)cc4)cc3)c2-c2ccccc2Cl)C1 (centres unmarked) | 0 (no)
Fc1ccc(-c2ccc(-n3ncc(CN4CCN(C5CCCC5)CC4)c3-c3cccc(Cl)c3)cc2)cc1 | 0 (no)
Cc1noc(C)c1-c1c(CN(C)C)cnn1-c1ccc(-c2ccc(F)cc2)cc1 | 1 (yes)
CCN(CC)Cc1cnn(-c2ccc(-c3ccc4c(c3)OCCO4)cc2)c1-c1ccco1 | 1 (yes)
CC(C)N1CCN(Cc2cnn(-c3ccc(-c4ccc(F)cc4)cc3)c2-c2ccco2)CC1 | 1 (yes)
CN1CCC(N(C)Cc2cnn(-c3ccc(-c4ccc(F)cc4)cc3)c2-c2ccco2)C1 (centres unmarked) [Example 529] | 1 (yes)
CCN(CC)Cc1cnn(-c2ccc(-c3ccc4c(c3)OCO4)cc2)c1-c1ccco1 | 1 (yes)
CCN1CCN(Cc2cnn(-c3ccc(-c4ccc(F)cc4)cn3)c2-c2ccco2)CC1 | 1 (yes)
CN1CCN(Cc2cnn(-c3ccc(-c4cc(F)c(OC(F)(F)F)c(F)c4)cc3)c2-c2ccccc2F)CC1 | 1 (yes)
CN1CCN(Cc2cnn(-c3ccc(-c4ccc(S(C)(=O)=O)cc4)cc3)c2-c2ccccc2F)CC1 | 0 (no)
CN(C)Cc1cnn(-c2ccc(-c3ccc(F)cc3)cc2)c1-c1ccoc1 | 1 (yes)
Fc1ccc(CCN2CCC(NCc3cnn(-c4ccc(-c5ccc(F)cc5)cc4)c3-c3ccco3)C2)cc1 (centres unmarked) | 1 (yes)
Cc1noc(C)c1-c1c(CN2CCNCC2)cnn1-c1ccc(-c2ccc(F)cc2)cc1 | 0 (no)
CN1CCC(N(C)Cc2cnn(-c3ccc(-c4ccc(F)cc4)cc3)c2-c2ccco2)C1 (centres unmarked) [Example 575] | 1 (yes)
c1coc(-c2c(CN3CCN(C4CCCC4)CC3)cnn2-c2ccc(-c3ccc4c(c3)OCO4)cc2)c1 | 1 (yes)
CN1CCN(Cc2cnn(-c3ccc(-c4ccsc4)cc3)c2-c2ccccc2F)CC1 | 1 (yes)
CN1CCN(Cc2cnn(-c3ccc(-c4cccc(F)c4)cc3)c2-c2ccco2)CC1 | 1 (yes)
CN1CCN(Cc2cnn(-c3ccc(-c4ccc5c(c4)OCO5)cc3)c2-c2ccccc2F)CC1 | 1 (yes)
O=C(c1ccccc1)C1CCCN(Cc2cnn(-c3ccc(-c4ccc(F)cc4)cc3)c2-c2ccco2)C1 (centres unmarked) | 1 (yes)
OC1CCN(Cc2cnn(-c3ccc(-c4ccc5c(c4)OCCO5)cc3)c2-c2ccco2)C1 (centres unmarked) | 1 (yes)
CN(C)CCN(C)Cc1cnn(-c2ccc(-c3ccc(F)cc3)cc2)c1-c1cccc(Cl)c1 | 0 (no)
COc1cccc(-c2c(CN(C)C)cnn2-c2ccc(-c3ccc(F)cc3)cc2)c1 | 1 (yes)
OC1CCN(Cc2cnn(-c3ccc(-c4ccc5c(c4)OCO5)cc3)c2-c2ccco2)C1 (centres unmarked) | 1 (yes)
COc1ccc(-c2ccc(-n3ncc(CN4CCNCC4)c3-c3ccco3)cc2)cc1 | 1 (yes)
Fc1ccc(-c2ccc(-n3ncc(CNCCc4ccccn4)c3-c3ccco3)cc2)cc1 | 1 (yes)
O=C1CN(Cc2cnn(-c3ccc(-c4ccc5c(c4)OCO5)cc3)c2-c2ccco2)CCN1 | 1 (yes)
CN(C)Cc1cnn(-c2ccc(-c3ccc4c(c3)OCCO4)cc2)c1-c1ccco1 | 1 (yes)
